Molecular target: HIV-1 RT (Human immunodeficiency virus type 1 group M subtype B)
Construct: HIV-1 RT Assays in the Presence of Artificial Template/Primer
Assay: HIV-1 RT assay in the presence of artificial template/primer
Format: biochemical
testReadout: IC50

compound="Cc1cn(C[C@H]2CCC[C@H]2COC(C(=O)O)P(=O)(O)O)c(=O)[nH]c1=O (stereo partly shown) [Compound 13d]" targetortestsystem="HIV-1 RT (Human immunodeficiency virus type 1 group M subtype B)" result="≥ 500 µM"
compound="Cc1cn(C[C@H]2CCCC[C@H]2COC(C(=O)O)P(=O)(O)O)c(=O)[nH]c1=O (stereo partly shown) [Compound 13i]" targetortestsystem="HIV-1 RT (Human immunodeficiency virus type 1 group M subtype B)" result="≥ 500 µM"
compound="Cc1cn(CC#CCOC(C(=O)O)P(=O)(O)O)c(=O)[nH]c1=O (stereo not shown) [Compound 13b]" targetortestsystem="HIV-1 RT (Human immunodeficiency virus type 1 group M subtype B)" result="> 500 µM"
compound="COC(=O)C(OC[C@@H]1CCCC[C@@H]1Cn1cc(C)c(=O)[nH]c1=O)P(=O)(O)O (stereo partly shown) [Compound 13j]" targetortestsystem="HIV-1 RT (Human immunodeficiency virus type 1 group M subtype B)" result="≥ 500 µM"

Sourced from patent US10167302B2
